Test system: corn (Zea mays)
experiment-description: Test G Post-Emergence Protocol
Type: in vivo
run-parameters: Zea mays, post-emergence, 312 h, 62.5 g ai/ha, evaluated after 13 days, 100=total damage to plant, 0=no damage to plant, read-out: Corn damage rating
plant injury at 62.5 g/ha reference
Just the number in %, nothing appended.

Worked set:
Cc1c(F)cccc1NC(=O)[C@@H]1C(=O)N(C)C[C@H]1c1ccnc(OCC(F)(F)F)c1 (racemic) [Compound 1802]    0
CN1CCCC(NC(=O)[C@H]2C(=O)N(C)C[C@@H]2c2ccc(C(F)(F)F)cc2)C1=O (mixture of isomers) [Compound 1674]    0
CN1C[C@H](c2cc(C(F)(F)F)cc(C(F)(F)F)c2)[C@@H](C(=O)Nc2ccccc2S(C)(=O)=O)C1=O (racemic) [Compound 1794]    50
CSc1ccncc1NC(=O)[C@H]1C(=O)N(C)C[C@@H]1c1ccc(C(F)(F)F)cc1 (racemic) [Compound 1749]    0

## Task Fill in the blank: the reported plant injury at 62.5 g/ha of CN1C[C@@H](c2ccc(C(F)(F)F)cc2)[C@H](C(=O)Nc2ccc(F)nc2F)C1=O (racemic) [Compound 1650] is ____.
## Result 50

## Task Fill in the blank: the reported plant injury at 62.5 g/ha of CCOc1cc(F)cc(C2CN(C)C(=O)C2C(=O)Nc2cccc(F)c2F)c1 (centres unmarked) [Compound 1695] is ____.
## Result 70

## Task Fill in the blank: the reported plant injury at 62.5 g/ha of CN1C[C@H](c2cccc(C(F)(F)F)c2)[C@@H](C(=O)Nc2cnccc2[N+](=O)[O-])C1=O (racemic) [Compound 1731] is ____.
## Result 0

## Task Fill in the blank: the reported plant injury at 62.5 g/ha of CN1C[C@@H](c2cccc(Oc3ccc(F)cc3)c2)[C@H](C(=O)Nc2cccc(F)n2)C1=O (racemic) [Compound 1829] is ____.
## Result 0

## Task Fill in the blank: the reported plant injury at 62.5 g/ha of COc1cc(OC(F)(F)F)cc(C2CN(C)C(=O)C2C(=O)Nc2cccc(F)c2F)c1 (centres unmarked) [Compound 1697] is ____.
## Result 80

## Task Fill in the blank: the reported plant injury at 62.5 g/ha of CN1C[C@@H](c2cccc(C(F)(F)F)c2)[C@H](C(=O)Nc2cccnc2F)C1=O [Compound 1823] is ____.
## Result 0

## Task Fill in the blank: the reported plant injury at 62.5 g/ha of CCOc1cc(C2CN(C)C(=O)C2C(=O)Nc2cccc(F)c2F)ccc1Cl (centres unmarked) [Compound 1686] is ____.
## Result 10

## Task Fill in the blank: the reported plant injury at 62.5 g/ha of CON1C[C@H](c2ccc(F)c(F)c2)[C@@H](C(=O)Nc2ccc(F)c(F)c2F)C1=O [Compound 1679] is ____.
## Result 0

## Task Fill in the blank: the reported plant injury at 62.5 g/ha of CN1C[C@H](c2ccc(C(F)(F)F)cc2)[C@@H](C(=O)Nc2cnccc2S(C)(=O)=O)C1=O (racemic) [Compound 1746] is ____.
## Result 0

## Task Fill in the blank: the reported plant injury at 62.5 g/ha of COc1cc(F)cc(C2CN(C)C(=O)C2C(=O)Nc2cccc(F)c2F)c1 (centres unmarked) [Compound 1699] is ____.
## Result 30

## Task Fill in the blank: the reported plant injury at 62.5 g/ha of COc1cc(C2CN(C)C(=O)C2C(=O)Nc2cccc(F)c2F)cc(C(F)(F)F)c1F (centres unmarked) [Compound 1701] is ____.
## Result 30

## Task Fill in the blank: the reported plant injury at 62.5 g/ha of CN1C[C@H](c2cccc(C(F)(F)F)c2)[C@@H](C(=O)Nc2cnccc2F)C1=O (racemic) [Compound 1745] is ____.
## Result 0

## Task Fill in the blank: the reported plant injury at 62.5 g/ha of CN1C[C@@H](c2cc(Br)cc(Oc3ccccc3)c2)[C@H](C(=O)Nc2cccc(F)c2F)C1=O (racemic) [Compound 1821] is ____.
## Result 10
